Test system: Caov-4 (Ovarian Carcinoma)
assayName: Bliss excess, mean over the matrix (fraction); higher = more synergy;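 note: after 72 h of two-drug dosing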
Quick rule: Bliss excess of at least 0.03 means TRUE, below that means FALSE.

For orientation, consider the following solved cases.
INSERT INTO measurements (molecule, assignedlabel) VALUES
  ('Cc1cc2ncnn2cc1Nc1ncc2c(n1)n(C1CCOCC1)c(=O)n2C [AZD7648] + C=CCn1c(=O)c2cnc(Nc3ccc(N4CCN(C)CC4)cc3)nc2n1-c1cccc(C(C)(C)O)n1 [AZD1775] (first compound max 10 µM, partner max 1 µM)', 'FALSE'),
  ('CS(=O)(=O)CCNCc1ccc(-c2ccc3ncnc(Nc4ccc(OCc5cccc(F)c5)c(Cl)c4)c3c2)o1 [Lapatinib] + Cn1cnc2c(F)c(Nc3ccc(Br)cc3Cl)c(C(=O)NOCCO)cc21 [Selumetinib] (first compound max 10 µM, 7x7, partner max 10 µM)', 'TRUE'),
  ('O=C(c1cc(Cc2n[nH]c(=O)c3ccccc23)ccc1F)N1CCN(C(=O)C2CC2)CC1 [Olaparib] + CC1(C)CCC(CN2CCN(c3ccc(C(=O)NS(=O)(=O)c4ccc(NCC5CCOCC5)c([N+](=O)[O-])c4)c(Oc4cnc5[nH]ccc5c4)c3)CC2)=C(c2ccc(Cl)cc2)C1 [Venetoclax] (first compound max 10 µM, 7x7, partner max 1 µM)', 'FALSE');

Query :: In plain terms: is recorded Bliss excess at least 0.03 for Cc1c2c(nn1C)CSCc1cc(n(C)n1)CSc1cc(c3ccccc3c1)OCCCc1c(C(=O)O)n(C)c3c-2c(Cl)ccc13 [AZD5991] + Cn1cnc2c(F)c(Nc3ccc(Br)cc3Cl)c(C(=O)NOCCO)cc21 [Selumetinib] (first compound max 1 µM, 7x7, partner max 3 µM) ?
Result :: TRUE

Query :: In plain terms: is recorded Bliss excess at least 0.03 for Cc1c2c(nn1C)CSCc1cc(n(C)n1)CSc1cc(c3ccccc3c1)OCCCc1c(C(=O)O)n(C)c3c-2c(Cl)ccc13 [AZD5991] + CCN(CCO)CCCOc1ccc2c(Nc3cc(CC(=O)Nc4cccc(F)c4)[nH]n3)ncnc2c1 [AZD2811] (first compound max 1 µM, 7x7, partner max 1 µM) ?
Result :: TRUE

Query :: In plain terms: is recorded Bliss excess at least 0.03 for CS(=O)(=O)CCNCc1ccc(-c2ccc3ncnc(Nc4ccc(OCc5cccc(F)c5)c(Cl)c4)c3c2)o1 [Lapatinib] + NC1(c2ccc(-c3nc4ccn5c(=O)[nH]nc5c4cc3-c3ccccc3)cc2)CCC1 [MK-2206] (first compound max 10 µM, 7x7, partner max 10 µM) ?
Result :: FALSE

----------
Tested on: NCI-H1915 (Non-Small Cell Lung Carcinoma)
assayName: Bliss excess, mean over the matrix (fraction); higher = more synergy
Assignment: determine reported Bliss excess for the given compounds.
Answers are plain numbers.

// worked examples, Bliss excess included
INSERT INTO results (compound, measuredquantity, resultvalue) VALUES
  ('CC1(C)CCC(CN2CCN(c3ccc(C(=O)NS(=O)(=O)c4ccc(NCC5CCOCC5)c([N+](=O)[O-])c4)c(Oc4cnc5[nH]ccc5c4)c3)CC2)=C(c2ccc(Cl)cc2)C1 [Venetoclax] + C[C@@H]1COCCN1C2=NC(=NC(=C2)C3(CC3)[S@](=N)(=O)C)C4=C5C=CNC5=NC=C4 [AZD6738] (first compound max 1 µM, 7x7, partner max 10 µM)', 'Bliss excess', -0.0084),
  ('CC(=O)c1c(C)c2cnc(Nc3ccc(N4CCNCC4)cn3)nc2n(C2CCCC2)c1=O [Palbociclib] + CC1(C)CCC(CN2CCN(c3ccc(C(=O)NS(=O)(=O)c4ccc(NCC5CCOCC5)c([N+](=O)[O-])c4)c(Oc4cnc5[nH]ccc5c4)c3)CC2)=C(c2ccc(Cl)cc2)C1 [Venetoclax] (first compound max 10 µM, 7x7, partner max 1 µM)', 'Bliss excess', 0.0174),
  ('Cc1c2c(nn1C)CSCc1cc(n(C)n1)CSc1cc(c3ccccc3c1)OCCCc1c(C(=O)O)n(C)c3c-2c(Cl)ccc13 [AZD5991] + CC1(C)CCC(CN2CCN(c3ccc(C(=O)NS(=O)(=O)c4ccc(NCC5CCOCC5)c([N+](=O)[O-])c4)c(Oc4cnc5[nH]ccc5c4)c3)CC2)=C(c2ccc(Cl)cc2)C1 [Venetoclax] (first compound max 1 µM, 7x7, partner max 1 µM)', 'Bliss excess', -0.0211),
  ('Cc1c2c(nn1C)CSCc1cc(n(C)n1)CSc1cc(c3ccccc3c1)OCCCc1c(C(=O)O)n(C)c3c-2c(Cl)ccc13 [AZD5991] + CCN(CCO)CCCOc1ccc2c(Nc3cc(CC(=O)Nc4cccc(F)c4)[nH]n3)ncnc2c1 [AZD2811] (first compound max 1 µM, 7x7, partner max 1 µM)', 'Bliss excess', 0.0197),
  ('COc1cccc(OCCCN)c1-c1cc(Nc2cnc(C#N)cn2)n[nH]1 [Prexasertib] + CCc1c2c(nc3ccc(O)cc13)-c1cc3c(c(=O)n1C2)COC(=O)[C@]3(O)CC [SN-38] (first compound max 1 µM, 7x7, partner max 0.3 µM)', 'Bliss excess', 0.0086);

Please give Bliss excess for each item listed below.
1. NC1(C(=O)N[C@@H](CCO)c2ccc(Cl)cc2)CCN(c2ncnc3[nH]ccc23)CC1 [Capivasertib] + CCN(CCO)CCCOc1ccc2c(Nc3cc(CC(=O)Nc4cccc(F)c4)[nH]n3)ncnc2c1 [AZD2811] (first compound max 10 µM, 7x7, partner max 1 µM)
2. COc1nnc2ccc(N3CCC(c4ccc(OCCN5CCN(C)C(=O)[C@H]5C)cc4)CC3)nn12 [AZD5153] + CC1(C)CCC(CN2CCN(c3ccc(C(=O)NS(=O)(=O)c4ccc(NCC5CCOCC5)c([N+](=O)[O-])c4)c(Oc4cnc5[nH]ccc5c4)c3)CC2)=C(c2ccc(Cl)cc2)C1 [Venetoclax] (first compound max 1 µM, 7x7, partner max 1 µM)
3. CC1(C)CCC(CN2CCN(c3ccc(C(=O)NS(=O)(=O)c4ccc(NCC5CCOCC5)c([N+](=O)[O-])c4)c(Oc4cnc5[nH]ccc5c4)c3)CC2)=C(c2ccc(Cl)cc2)C1 [Venetoclax] + C=CCn1c(=O)c2cnc(Nc3ccc(N4CCN(C)CC4)cc3)nc2n1-c1cccc(C(C)(C)O)n1 [AZD1775] (first compound max 1 µM, partner max 1 µM)

Result ::
[-0.0294, -0.0659, -0.009]

Please give Bliss excess for each item listed below.
1. Cc1c2c(nn1C)CSCc1cc(n(C)n1)CSc1cc(c3ccccc3c1)OCCCc1c(C(=O)O)n(C)c3c-2c(Cl)ccc13 [AZD5991] + C=CCn1c(=O)c2cnc(Nc3ccc(N4CCN(C)CC4)cc3)nc2n1-c1cccc(C(C)(C)O)n1 [AZD1775] (first compound max 1 µM, partner max 1 µM)
2. CCN(CCO)CCCOc1ccc2c(Nc3cc(CC(=O)Nc4cccc(F)c4)[nH]n3)ncnc2c1 [AZD2811] + O=C(c1cc(Cc2n[nH]c(=O)c3ccccc23)ccc1F)N1CCN(C(=O)C2CC2)CC1 [Olaparib] (first compound max 1 µM, 7x7, partner max 10 µM)

Result ::
[-0.0552, 0.025]

----------
Tested on: SCC-15 (Oral Cavity Carcinoma)
assayName: Bliss excess, mean over the matrix (fraction); higher = more synergy
Grouping rule (Bliss excess): lower level: < -0.03; middle level: ≥ -0.03 and < -0.006; upper level: ≥ -0.006

INSERT INTO measurements (molecule, assignedlabel) VALUES
  ('Cc1cc2ncnn2cc1Nc1ncc2c(n1)n(C1CCOCC1)c(=O)n2C [AZD7648] + CCN(CCO)CCCOc1ccc2c(Nc3cc(CC(=O)Nc4cccc(F)c4)[nH]n3)ncnc2c1 [AZD2811] (first compound max 10 µM, 7x7, partner max 1 µM)', 'upper level');

Query :: Hey, which category is NC1(C(=O)N[C@@H](CCO)c2ccc(Cl)cc2)CCN(c2ncnc3[nH]ccc23)CC1 [Capivasertib] + CC(C)n1c(=O)n(C)c2cnc3cc(F)c(-c4ccc(OCCCN5CCCCC5)nc4)cc3c21 [AZD1390] (first compound max 10 µM, 7x7, partner max 0.3 µM) in, do you know?
Result :: lower level

Query :: Hey, which category is Cc1c2c(nn1C)CSCc1cc(n(C)n1)CSc1cc(c3ccccc3c1)OCCCc1c(C(=O)O)n(C)c3c-2c(Cl)ccc13 [AZD5991] + C=CCn1c(=O)c2cnc(Nc3ccc(N4CCN(C)CC4)cc3)nc2n1-c1cccc(C(C)(C)O)n1 [AZD1775] (first compound max 1 µM, partner max 1 µM) in, do you know?
Result :: lower level

Query :: Hey, which category is CN(C)CCCOc1ccc(-c2ccc3ncc4c(c3c2)n(C2CCOCC2)c(=O)n4C)cn1 [AZD0156] + O=C(c1cc(Cc2n[nH]c(=O)c3ccccc23)ccc1F)N1CCN(C(=O)C2CC2)CC1 [Olaparib] (first compound max 3 µM, partner max 3 µM) in, do you know?
Result :: upper level

Query :: Hey, which category is CN(CCO)CC[C@H](CSc1ccccc1)Nc1ccc(S(=O)(=O)NC(=O)c2ccc(N3CCC([C@@H](O)c4ccccc4-c4ccc(Cl)cc4)CC3)cc2)cc1S(=O)(=O)C(F)(F)F [AZD4320] + C[C@@H]1COCCN1C2=NC(=NC(=C2)C3(CC3)[S@](=N)(=O)C)C4=C5C=CNC5=NC=C4 [AZD6738] (first compound max 1 µM, 7x7, partner max 10 µM) in, do you know?
Result :: upper level

Query :: Hey, which category is CN(CCO)CC[C@H](CSc1ccccc1)Nc1ccc(S(=O)(=O)NC(=O)c2ccc(N3CCC([C@@H](O)c4ccccc4-c4ccc(Cl)cc4)CC3)cc2)cc1S(=O)(=O)C(F)(F)F [AZD4320] + C[C@@H](Nc1cc(F)cc(F)c1)c1cc(C(=O)N(C)C)cc2c(=O)cc(N3CCOCC3)oc12 [AZD8186] (first compound max 1 µM, 7x7, partner max 3 µM) in, do you know?
Result :: middle level

Query :: Hey, which category is Cc1nc(Nc2ncc(C(=O)Nc3c(C)cccc3Cl)s2)cc(N2CCN(CCO)CC2)n1 [Dasatinib] + CC(=O)Nc1cccc(-n2c(=O)n(C3CC3)c(=O)c3c(Nc4ccc(I)cc4F)n(C)c(=O)c(C)c32)c1 [Trametinib] (first compound max 2 µM, 7x7, partner max 1 µM) in, do you know?
Result :: middle level

Query :: Hey, which category is CS(=O)(=O)CCNCc1ccc(-c2ccc3ncnc(Nc4ccc(OCc5cccc(F)c5)c(Cl)c4)c3c2)o1 [Lapatinib] + C[C@@H](Oc1cc(-c2cnn(C3CCNCC3)c2)cnc1N)c1c(Cl)ccc(F)c1Cl [Crizotinib] (first compound max 10 µM, 7x7, partner max 10 µM) in, do you know?
Result :: upper level
